Each recorded value in this set is attributed to ChEMBL document CHEMBL4831531.

pIC50: −log10 of the molar value.
Below are pIC50 values measured for 3',5'-cyclic-AMP phosphodiesterase 4D (Homo sapiens, UniProt Q08499).

- Substance smiles: "COc1c(OCc2ccc(F)cc2)cc2oc3cc4c(c(OCCCC(=O)O)c3c(=O)c2c1CC=C(C)C)C=CC(C)(C)O4"
  pIC50: 8.38
- Substance smiles: "COc1c(O)cc2oc3cc4c(c(OCC(=O)O)c3c(=O)c2c1CC=C(C)C)C=CC(C)(C)O4"
  pIC50: 7.77
- Substance smiles: "COc1c(O)cc2oc3cc4c(c(OC/C=C/C(=O)O)c3c(=O)c2c1CC=C(C)C)C=CC(C)(C)O4"
  pIC50: 6.31
- Substance smiles: "CCOC(=O)/C=C/COc1c2c(cc3oc4cc(OCc5cccc(F)c5)c(OC)c(CC=C(C)C)c4c(=O)c13)OC(C)(C)C=C2"
  pIC50: 8.19
- Substance smiles: "COc1c(O)cc2oc3cc4c(c(OCCCCC(=O)O)c3c(=O)c2c1CC=C(C)C)C=CC(C)(C)O4"
  pIC50: 7.62
- Substance smiles: "COc1c(OC(C)C)cc2oc3cc4c(c(OC/C=C/C(=O)O)c3c(=O)c2c1CC=C(C)C)C=CC(C)(C)O4"
  pIC50: 7.51

###

- System under test: cGMP-dependent 3',5'-cyclic phosphodiesterase (Homo sapiens)
Quantity: IC50 (nM)

- Substance smiles: "COc1c(OCc2ccc(F)cc2)cc2oc3cc4c(c(OC/C=C/C(=O)O)c3c(=O)c2c1CC=C(C)C)C=CC(C)(C)O4"
  Readout value: 940

###

- System under test: High affinity cGMP-specific 3',5'-cyclic phosphodiesterase 9A (Homo sapiens)
- Sequence (O76083 whole entry): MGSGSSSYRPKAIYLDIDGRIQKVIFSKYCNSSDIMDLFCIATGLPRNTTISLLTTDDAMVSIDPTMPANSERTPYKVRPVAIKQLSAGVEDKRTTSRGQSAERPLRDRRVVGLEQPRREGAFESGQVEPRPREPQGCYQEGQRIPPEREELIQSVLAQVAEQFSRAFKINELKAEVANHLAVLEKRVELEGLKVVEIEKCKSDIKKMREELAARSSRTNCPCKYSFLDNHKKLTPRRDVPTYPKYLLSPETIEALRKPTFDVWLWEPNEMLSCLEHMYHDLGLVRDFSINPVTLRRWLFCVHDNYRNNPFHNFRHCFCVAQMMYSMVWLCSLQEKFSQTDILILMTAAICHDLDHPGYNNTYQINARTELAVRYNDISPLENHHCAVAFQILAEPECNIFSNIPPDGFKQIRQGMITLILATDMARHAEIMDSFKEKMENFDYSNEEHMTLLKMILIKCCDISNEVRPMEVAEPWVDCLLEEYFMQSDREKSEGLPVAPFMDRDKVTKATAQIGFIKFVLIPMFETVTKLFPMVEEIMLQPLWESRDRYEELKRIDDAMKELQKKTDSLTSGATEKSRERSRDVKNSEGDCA

- Substance smiles: "COc1c(OCc2ccc(F)cc2)cc2oc3cc4c(c(OC/C=C/C(=O)O)c3c(=O)c2c1CC=C(C)C)C=CC(C)(C)O4"
  IC50: "> 10 µM"

###

- Assay method text: AUC (0 to infinity) in Sprague-Dawley rat at 5 mg/kg, po
- Format: ADME, organism-based
- Set-up: route oral, time infinity, dose 5 mg/kg
- Condition summary: in vivo

- Substance smiles: "COc1c(OCc2ccc(F)cc2)cc2oc3cc4c(c(OC/C=C/C(=O)O)c3c(=O)c2c1CC=C(C)C)C=CC(C)(C)O4"
  AUC(0-inf) (µg·h/mL): 8.46

###

- Assay method text: Half life in Sprague-Dawley rat at10 mg/kg, po
- Type: ADME, organism-based
- Condition summary: in vivo, dose 10 mg/kg
Quantity: half-life (h)

- Substance smiles: "COc1c(OCc2ccc(F)cc2)cc2oc3cc4c(c(OC/C=C/C(=O)O)c3c(=O)c2c1CC=C(C)C)C=CC(C)(C)O4"
  Unit spec: "h"
  Readout value: 1.02

###

- Assay method text: Cmax in Sprague-Dawley rat at 5 mg/kg, po
- Format: ADME, organism-based
- Parameters: route oral, dose 5 mg/kg
- Condition summary: in vivo
Quantity: Cmax (ng/mL)

- Substance smiles: "COc1c(OCc2ccc(F)cc2)cc2oc3cc4c(c(OC/C=C/C(=O)O)c3c(=O)c2c1CC=C(C)C)C=CC(C)(C)O4"
  Quantity: "Cmax"
  Unit spec: "ng/mL"
  Readout value: 3850

###

- Assay method text: Half life in Sprague-Dawley rat at 5 mg/kg, po
- Format: ADME, organism-based
- Condition summary: in vivo
Quantity: half-life (h)

- Substance smiles: "COc1c(OCc2ccc(F)cc2)cc2oc3cc4c(c(OC/C=C/C(=O)O)c3c(=O)c2c1CC=C(C)C)C=CC(C)(C)O4"
  Readout value: 1.55

###

- System under test: 3',5'-cyclic-AMP phosphodiesterase 4B (Homo sapiens, UniProt Q07343)

- Substance smiles: "COc1c(OCc2ccc(F)cc2)cc2oc3cc4c(c(OC/C=C/C(=O)O)c3c(=O)c2c1CC=C(C)C)C=CC(C)(C)O4"
  IC50: "140 nM"

###

- Assay method text: Cmax in Sprague-Dawley rat at 10 mg/kg, po
- Type: ADME, organism-based
- Parameters: route oral, dose 10 mg/kg
- Condition summary: in vivo

- Substance smiles: "COc1c(OCc2ccc(F)cc2)cc2oc3cc4c(c(OC/C=C/C(=O)O)c3c(=O)c2c1CC=C(C)C)C=CC(C)(C)O4"
  Cmax: "1070 ng/mL"

###

- System under test: Cytochrome P450 2B6 (Homo sapiens)

- Substance smiles: "COc1c(OCc2ccc(F)cc2)cc2oc3cc4c(c(OC/C=C/C(=O)O)c3c(=O)c2c1CC=C(C)C)C=CC(C)(C)O4"
  IC50: "> 25 µM"

###

- System under test: Cytochrome P450 2C9 (Homo sapiens)
- Sequence (P11712 whole entry): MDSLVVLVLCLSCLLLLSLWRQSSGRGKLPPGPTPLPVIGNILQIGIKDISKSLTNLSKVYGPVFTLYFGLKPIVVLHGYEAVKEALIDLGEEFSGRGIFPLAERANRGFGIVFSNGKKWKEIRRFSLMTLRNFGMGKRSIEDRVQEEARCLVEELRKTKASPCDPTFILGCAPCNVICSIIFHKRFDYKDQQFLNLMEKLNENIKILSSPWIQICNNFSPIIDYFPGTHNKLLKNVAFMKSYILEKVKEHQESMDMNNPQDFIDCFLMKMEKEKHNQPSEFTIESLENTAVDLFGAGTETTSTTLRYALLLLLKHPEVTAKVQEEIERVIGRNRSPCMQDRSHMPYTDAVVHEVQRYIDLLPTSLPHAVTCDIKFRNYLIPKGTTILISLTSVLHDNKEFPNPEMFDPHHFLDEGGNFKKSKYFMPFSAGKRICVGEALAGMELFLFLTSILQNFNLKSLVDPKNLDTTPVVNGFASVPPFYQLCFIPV
pIC50: −log10 of the molar value.
Quantity: pIC50

- Substance smiles: "COc1c(OCc2ccc(F)cc2)cc2oc3cc4c(c(OC/C=C/C(=O)O)c3c(=O)c2c1CC=C(C)C)C=CC(C)(C)O4"
  Quantity: "pIC50"
  Readout value: 5.77

###

- System under test: High affinity cAMP-specific and IBMX-insensitive 3',5'-cyclic phosphodiesterase 8A (Homo sapiens)
- Sequence (O60658 whole entry): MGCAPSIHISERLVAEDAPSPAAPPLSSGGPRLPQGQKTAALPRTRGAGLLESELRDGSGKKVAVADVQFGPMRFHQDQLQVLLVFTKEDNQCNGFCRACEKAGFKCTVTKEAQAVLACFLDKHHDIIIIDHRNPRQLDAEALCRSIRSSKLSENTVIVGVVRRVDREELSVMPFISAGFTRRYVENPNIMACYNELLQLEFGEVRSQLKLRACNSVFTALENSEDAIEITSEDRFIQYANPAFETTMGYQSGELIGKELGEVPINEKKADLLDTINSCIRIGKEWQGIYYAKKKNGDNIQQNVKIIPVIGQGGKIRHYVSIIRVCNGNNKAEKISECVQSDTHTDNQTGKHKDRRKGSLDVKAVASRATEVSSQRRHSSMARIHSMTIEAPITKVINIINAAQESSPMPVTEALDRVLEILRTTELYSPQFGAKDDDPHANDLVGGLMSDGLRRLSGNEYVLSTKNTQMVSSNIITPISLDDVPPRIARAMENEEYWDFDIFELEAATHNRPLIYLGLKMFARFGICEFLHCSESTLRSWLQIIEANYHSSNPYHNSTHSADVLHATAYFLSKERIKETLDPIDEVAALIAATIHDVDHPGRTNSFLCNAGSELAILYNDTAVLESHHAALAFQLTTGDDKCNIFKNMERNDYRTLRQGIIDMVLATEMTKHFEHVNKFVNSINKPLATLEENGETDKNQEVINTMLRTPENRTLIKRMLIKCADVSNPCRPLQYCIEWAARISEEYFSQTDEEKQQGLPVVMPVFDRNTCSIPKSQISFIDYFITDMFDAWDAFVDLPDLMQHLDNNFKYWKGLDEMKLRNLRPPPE
pIC50: −log10 of the molar value.
Quantity: pIC50

- Substance smiles: "COc1c(OCc2ccc(F)cc2)cc2oc3cc4c(c(OC/C=C/C(=O)O)c3c(=O)c2c1CC=C(C)C)C=CC(C)(C)O4"
  Quantity: "pIC50"
  Readout value: 6.15

###

- Assay method text: AUC (0 to infinity) in Sprague-Dawley rat at 10 mg/kg, po
- Format: ADME, organism-based
- Parameters: route oral, time infinity, dose 10 mg/kg
- Condition summary: in vivo
Quantity: AUC(0-inf) (ng·h/mL)

- Substance smiles: "COc1c(OCc2ccc(F)cc2)cc2oc3cc4c(c(OC/C=C/C(=O)O)c3c(=O)c2c1CC=C(C)C)C=CC(C)(C)O4"
  Unit spec: "ng·h/mL"
  Readout value: 2110

###

- System under test: Dual specificity calcium/calmodulin-dependent 3',5'-cyclic nucleotide phosphodiesterase 1C (Homo sapiens)
- Assay method text: Inhibition of PDE1C (147-531) (unknown origin) expressed in Escherichia coli BL21 assessed as using [3H]-cAMP as substrate measured for 15 mins by liquid scintillation counting analysis
pIC50: −log10 of the molar value.

- Substance smiles: "COc1c(OCc2ccc(F)cc2)cc2oc3cc4c(c(OC/C=C/C(=O)O)c3c(=O)c2c1CC=C(C)C)C=CC(C)(C)O4"
  pIC50: 6.36

###

- System under test: cGMP-inhibited 3',5'-cyclic phosphodiesterase 3A (Homo sapiens)
- Sequence (Q14432 whole entry): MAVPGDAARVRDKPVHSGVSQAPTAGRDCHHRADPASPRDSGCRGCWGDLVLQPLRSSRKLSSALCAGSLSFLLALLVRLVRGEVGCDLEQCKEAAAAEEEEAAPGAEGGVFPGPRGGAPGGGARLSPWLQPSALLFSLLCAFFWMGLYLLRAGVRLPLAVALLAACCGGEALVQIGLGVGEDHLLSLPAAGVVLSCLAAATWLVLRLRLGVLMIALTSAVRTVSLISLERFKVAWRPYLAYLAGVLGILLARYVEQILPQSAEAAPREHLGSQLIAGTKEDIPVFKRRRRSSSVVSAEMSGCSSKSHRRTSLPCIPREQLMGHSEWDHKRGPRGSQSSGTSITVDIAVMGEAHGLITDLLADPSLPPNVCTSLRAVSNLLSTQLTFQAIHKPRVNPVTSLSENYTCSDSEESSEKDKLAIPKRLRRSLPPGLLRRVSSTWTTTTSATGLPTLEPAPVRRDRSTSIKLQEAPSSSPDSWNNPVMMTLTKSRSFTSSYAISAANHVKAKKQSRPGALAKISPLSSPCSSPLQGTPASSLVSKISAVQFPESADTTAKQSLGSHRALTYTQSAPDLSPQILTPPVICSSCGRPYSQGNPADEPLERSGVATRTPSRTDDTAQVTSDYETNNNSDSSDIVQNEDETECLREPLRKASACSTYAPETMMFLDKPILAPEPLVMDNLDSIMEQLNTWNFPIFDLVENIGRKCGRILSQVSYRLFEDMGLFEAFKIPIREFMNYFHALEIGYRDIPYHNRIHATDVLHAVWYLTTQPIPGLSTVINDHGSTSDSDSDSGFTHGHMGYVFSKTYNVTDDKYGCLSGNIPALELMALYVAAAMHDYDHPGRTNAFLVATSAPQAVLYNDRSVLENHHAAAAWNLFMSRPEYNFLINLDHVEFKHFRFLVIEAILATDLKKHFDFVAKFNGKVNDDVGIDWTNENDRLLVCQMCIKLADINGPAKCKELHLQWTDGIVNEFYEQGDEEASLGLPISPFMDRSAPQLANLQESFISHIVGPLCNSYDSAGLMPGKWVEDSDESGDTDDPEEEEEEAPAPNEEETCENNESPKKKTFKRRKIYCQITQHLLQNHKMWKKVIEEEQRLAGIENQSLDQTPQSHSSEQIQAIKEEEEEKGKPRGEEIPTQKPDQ
pIC50: −log10 of the molar value.
Quantity: pIC50

- Substance smiles: "COc1c(OCc2ccc(F)cc2)cc2oc3cc4c(c(OC/C=C/C(=O)O)c3c(=O)c2c1CC=C(C)C)C=CC(C)(C)O4"
  System under test: "cGMP-inhibited 3',5'-cyclic phosphodiesterase 3A (Homo sapiens)"
  Readout value: "< 5.00"

###

# pIC50 listing for each entry below
- System under test: 3',5'-cyclic-AMP phosphodiesterase 4D (Homo sapiens, UniProt Q08499)
- Sequence (Q08499 whole entry): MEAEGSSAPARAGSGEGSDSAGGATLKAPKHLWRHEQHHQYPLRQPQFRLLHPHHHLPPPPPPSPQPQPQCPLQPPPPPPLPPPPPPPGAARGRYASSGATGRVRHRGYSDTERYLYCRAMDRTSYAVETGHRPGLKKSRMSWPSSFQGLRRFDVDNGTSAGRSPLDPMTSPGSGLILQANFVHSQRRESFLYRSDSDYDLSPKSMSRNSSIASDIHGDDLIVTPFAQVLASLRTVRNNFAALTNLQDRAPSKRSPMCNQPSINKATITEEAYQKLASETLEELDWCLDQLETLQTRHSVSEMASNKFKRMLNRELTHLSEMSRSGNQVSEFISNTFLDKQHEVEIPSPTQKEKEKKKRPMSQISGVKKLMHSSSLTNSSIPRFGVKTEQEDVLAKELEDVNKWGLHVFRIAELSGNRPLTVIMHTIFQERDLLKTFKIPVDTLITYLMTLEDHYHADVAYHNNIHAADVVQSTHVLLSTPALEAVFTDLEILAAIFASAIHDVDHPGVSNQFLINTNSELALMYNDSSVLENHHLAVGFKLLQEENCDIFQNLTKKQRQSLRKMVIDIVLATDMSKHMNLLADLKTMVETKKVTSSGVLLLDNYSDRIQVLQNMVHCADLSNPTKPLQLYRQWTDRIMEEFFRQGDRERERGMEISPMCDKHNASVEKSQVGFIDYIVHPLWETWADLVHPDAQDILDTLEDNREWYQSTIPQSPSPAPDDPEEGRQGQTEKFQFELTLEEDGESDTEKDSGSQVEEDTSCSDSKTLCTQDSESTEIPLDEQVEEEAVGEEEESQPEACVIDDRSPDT
pIC50: −log10 of the molar value.
Quantity: pIC50

- Substance smiles: "COc1c(O)cc2oc3cc4c(c(OCCCCCC(=O)O)c3c(=O)c2c1CC=C(C)C)C=CC(C)(C)O4"
  Quantity: "pIC50"
  Comparator: "="
  Readout value: 7.60
- Substance smiles: "COc1c(OCc2ccc(F)cc2)cc2oc3cc4c(c(OC/C=C/C(=O)O)c3c(=O)c2c1CC=C(C)C)C=CC(C)(C)O4"
  Quantity: "pIC50"
  Comparator: "="
  Readout value: 7.82
- Substance smiles: "COc1c(O)cc2oc3cc4c(c(OCCCC(=O)O)c3c(=O)c2c1CC=C(C)C)C=CC(C)(C)O4"
  Quantity: "pIC50"
  Comparator: "<"
  Readout value: 6.00
- Substance smiles: "COc1c(OCc2ccc(F)cc2)cc2oc3cc4c(c(OC/C=C\\C(=O)O)c3c(=O)c2c1CC=C(C)C)C=CC(C)(C)O4"
  Quantity: "pIC50"
  Comparator: "="
  Readout value: 7.70

###

- System under test: UniProtKB Q13946
- Sequence (Q13946 whole entry): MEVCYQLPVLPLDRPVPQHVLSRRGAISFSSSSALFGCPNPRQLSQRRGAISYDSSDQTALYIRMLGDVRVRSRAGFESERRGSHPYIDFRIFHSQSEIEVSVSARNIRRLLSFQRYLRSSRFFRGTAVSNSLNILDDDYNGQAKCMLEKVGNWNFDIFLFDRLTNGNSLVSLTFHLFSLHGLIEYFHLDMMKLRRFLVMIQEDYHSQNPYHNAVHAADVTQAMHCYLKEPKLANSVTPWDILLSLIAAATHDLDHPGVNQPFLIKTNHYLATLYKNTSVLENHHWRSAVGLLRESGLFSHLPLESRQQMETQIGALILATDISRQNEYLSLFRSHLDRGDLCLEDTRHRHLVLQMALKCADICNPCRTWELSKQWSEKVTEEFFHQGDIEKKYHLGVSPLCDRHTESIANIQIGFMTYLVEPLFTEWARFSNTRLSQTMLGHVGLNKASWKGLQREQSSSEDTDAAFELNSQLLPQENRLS

- Substance smiles: "COc1c(OCc2ccc(F)cc2)cc2oc3cc4c(c(OC/C=C/C(=O)O)c3c(=O)c2c1CC=C(C)C)C=CC(C)(C)O4"
  System under test: "UniProtKB Q13946"
  Unit spec: "nM"
  IC50: 298

###

- Assay method text: Tmax in Sprague-Dawley rat at 5 mg/kg, po
- Assay type: ADME, organism-based
- Condition summary: in vivo
Quantity: Tmax (h)

- Substance smiles: "COc1c(OCc2ccc(F)cc2)cc2oc3cc4c(c(OC/C=C/C(=O)O)c3c(=O)c2c1CC=C(C)C)C=CC(C)(C)O4"
  Unit spec: "h"
  Readout value: 1

###

- System under test: Cytochrome P450 3A4 (Homo sapiens, UniProt P08684)
- Sequence (P08684 whole entry): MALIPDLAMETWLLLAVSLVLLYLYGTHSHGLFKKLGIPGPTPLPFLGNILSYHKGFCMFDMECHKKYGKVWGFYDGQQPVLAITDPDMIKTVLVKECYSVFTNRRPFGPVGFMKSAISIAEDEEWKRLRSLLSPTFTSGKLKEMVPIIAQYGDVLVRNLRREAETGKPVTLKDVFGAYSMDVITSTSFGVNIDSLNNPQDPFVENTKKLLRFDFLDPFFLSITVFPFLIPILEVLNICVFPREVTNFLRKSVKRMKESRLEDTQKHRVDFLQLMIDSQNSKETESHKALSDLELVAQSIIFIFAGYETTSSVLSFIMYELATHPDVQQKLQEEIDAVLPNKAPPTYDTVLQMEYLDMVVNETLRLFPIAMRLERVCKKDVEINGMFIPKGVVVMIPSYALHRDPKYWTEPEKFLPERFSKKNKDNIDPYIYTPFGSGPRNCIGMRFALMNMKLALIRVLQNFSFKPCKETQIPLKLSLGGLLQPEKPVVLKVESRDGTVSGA
pIC50: −log10 of the molar value.
Quantity: pIC50

- Substance smiles: "COc1c(OCc2ccc(F)cc2)cc2oc3cc4c(c(OC/C=C/C(=O)O)c3c(=O)c2c1CC=C(C)C)C=CC(C)(C)O4"
  Quantity: "pIC50"
  Readout value: "< 4.60"
